Target: furin, P09958;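 also: purified furin at 1:10 enzyme:substrate in 50 mM HEPES pH 7.5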
Sequence (P09958 whole entry): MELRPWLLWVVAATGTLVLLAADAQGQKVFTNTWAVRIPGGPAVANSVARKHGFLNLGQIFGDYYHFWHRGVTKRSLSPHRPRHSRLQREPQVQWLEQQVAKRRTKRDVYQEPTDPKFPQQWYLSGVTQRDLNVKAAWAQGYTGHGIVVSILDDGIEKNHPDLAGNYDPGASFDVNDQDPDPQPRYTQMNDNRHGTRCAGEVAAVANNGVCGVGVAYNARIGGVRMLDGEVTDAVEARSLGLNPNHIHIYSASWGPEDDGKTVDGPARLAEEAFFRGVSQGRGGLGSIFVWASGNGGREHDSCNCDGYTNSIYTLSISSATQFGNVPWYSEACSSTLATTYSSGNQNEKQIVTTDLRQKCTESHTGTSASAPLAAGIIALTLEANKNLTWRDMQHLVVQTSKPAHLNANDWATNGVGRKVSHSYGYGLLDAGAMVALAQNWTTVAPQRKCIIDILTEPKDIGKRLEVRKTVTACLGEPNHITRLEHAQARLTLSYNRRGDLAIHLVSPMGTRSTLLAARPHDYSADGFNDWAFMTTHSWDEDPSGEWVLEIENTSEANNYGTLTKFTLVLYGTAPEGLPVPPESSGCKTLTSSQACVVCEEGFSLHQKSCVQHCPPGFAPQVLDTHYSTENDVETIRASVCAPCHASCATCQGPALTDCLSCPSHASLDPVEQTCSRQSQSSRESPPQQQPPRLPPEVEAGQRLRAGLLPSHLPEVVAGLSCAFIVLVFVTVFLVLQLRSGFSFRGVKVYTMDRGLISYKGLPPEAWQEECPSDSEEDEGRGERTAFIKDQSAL
Experiment: furin cleavage Z-score vs untreated control; higher = more cleavage, active = 3.5 or more, inactive = 1 or less, 8 variable residues between constant flanks
Conditions: 30 min
Some of the results follow. No count for the full screen is at hand.
Respond only with the outcome that fits, drawn from active, inactive

Input: Per the assay record, what outcome was assigned to CAEVVTSTWDAGNASASA [HC2251] ?
Output: inactive

Input: Try the sequence CAVVICSMSYAGNASASA [HC2024]
Output: inactive

Input: Also CASLEVVTSTAGNASASA [HC2277] ?
Output: inactive

Input: Try the sequence CAVLTRSRRDAGNASASA [FS-573]
Output: active

Input: Also CARYSAPPGDAGNASASA [HC1543] ?
Output: inactive

Input: Same lookup for CATPKRSRRDAGNASASA [FS-202] , please.
Output: active

Input: CAEAWRSRRDAGNASASA [FS-761] ?
Output: active
